# study-target: Human IP6K1 (Homo sapiens)
# Construct: GST (N, cleaved yes); made in house; host or cells: C43 E. coli, pGEX-6P-2
# Sequence (Q92551 whole entry): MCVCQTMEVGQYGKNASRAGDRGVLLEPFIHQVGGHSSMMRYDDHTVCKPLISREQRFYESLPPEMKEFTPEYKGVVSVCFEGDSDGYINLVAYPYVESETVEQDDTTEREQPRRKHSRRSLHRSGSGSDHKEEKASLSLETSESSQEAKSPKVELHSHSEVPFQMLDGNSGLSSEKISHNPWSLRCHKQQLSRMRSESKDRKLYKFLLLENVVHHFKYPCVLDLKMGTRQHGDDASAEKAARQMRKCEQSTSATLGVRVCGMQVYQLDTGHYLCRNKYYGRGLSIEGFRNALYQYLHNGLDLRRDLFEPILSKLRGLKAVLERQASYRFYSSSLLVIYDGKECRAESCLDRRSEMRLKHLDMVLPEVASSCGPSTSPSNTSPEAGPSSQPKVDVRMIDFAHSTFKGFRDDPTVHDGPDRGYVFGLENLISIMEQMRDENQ
# assay: IP6K1 high-throughput screen of the Sigma LOPAC (ADP-Glo Max, single point);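 also: final compound concentration 10µM in 5% DMSO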
# Format: biochemical
# experimental-context: LOPAC single-point screen, ADP-Glo Max luminescence raw signal per well
Where a name gives a salt, the structure may show the parent alone.
I'd be grateful if you could share measured Raw Signal for these entries.
Give the figure only, with no unit attached.

Input `N#CC(C#N)=Cc1ccc(O)c(O)c1` . Output Raw Signal: 48444

Input CN(C)CCOC(=O)COc1ccc(Cl)cc1 [Centrophenoxine hydrochloride] . Output Raw Signal: 69002

Input N#CCCN.N#CCCN.O=C(O)/C=C/C(=O)O [3-Aminopropionitrile fumarate] . Output Raw Signal: 53618

Input `O=c1[nH]c2cc(C(F)(F)F)ccc2n1-c1cc(C(F)(F)F)ccc1O` . Output Raw Signal: 51434

Input CC(=O)[C@H]1CC[C@H]2[C@@H]3CC=C4C[C@@H](OS(=O)(=O)[O-])CC[C@]4(C)[C@H]3CC[C@]12C.[Na+] [Pregnenolone sulfate sodium] . Output Raw Signal: 62981

Input NCCCS(=O)(=O)O.[Na] [3-Amino-1-propanesulfonic acid sodium] . Output Raw Signal: 52858

Input c1ccc(C2CN3CCSC3=N2)cc1 (centres unmarked) [Tetramisole hydrochloride] . Output Raw Signal: 64300

Input Br.C=CCN1CCc2cccc3c2[C@H]1Cc1ccc(O)c(O)c1-3 [R(-)-N-Allylnorapomorphine hydrobromide] . Output Raw Signal: 62401

Input CC(N)Cc1c[nH]c2ccc(OCc3cccs3)cc12 (centres unmarked) . Output Raw Signal: 55162

Input `O=C1NCN(c2ccccc2)C12CCN(CCCC(c1ccc(F)cc1)c1ccc(F)cc1)CC2` . Output Raw Signal: 52037

Input `N[C@@H](Cc1ccc(O)c(I)c1)C(=O)O` . Output Raw Signal: 50230

Input `COC[C@H]1OC(=O)c2coc3c2[C@@]1(C)C1=C(C3=O)[C@@H]2CCC(=O)[C@@]2(C)C[C@H]1OC(C)=O` . Output Raw Signal: 53582

Input CNc1cc(NS(=O)(=O)c2ccc(N)cc2)nc(NC)n1.Cl.Cl [Ro 04-6790 dihydrochloride] . Output Raw Signal: 63150

Input `Br.CN1CCc2cc(O)cc3c2[C@H]1Cc1ccc(O)c(O)c1-3` . Output Raw Signal: 51557

Input `Nc1ccc(CCNc2ncnc3c2ncn3[C@@H]2O[C@H](CO)[C@@H](O)[C@H]2O)cc1` . Output Raw Signal: 51199

Input `CN1CCN(C2=Nc3cc(Cl)ccc3Nc3ccccc32)CC1` . Output Raw Signal: 54825

Input `CN1[C@@H]2CC[C@H]1C[C@@H](OC(=O)[C@H](CO)c1ccccc1)C2` . Output Raw Signal: 63094
